EXPERIMENTAL_TARGET: CB1 (mutant) (Homo sapiens)
ASSAY_NAME: R-SAT functional receptor assay, CB1 (mutant, truncated after amino acid 417)
Type: cell-based
EXPERIMENTAL_PARAMETERS: Appendix A; R-SAT CB1; receptor form (mutant or wild-type) not stated
QUANTITY: pIC50
Form rule: numeric answer, no unit written next to it.

COMPOUND: CONC(=O)c1ccc2c(c1)N=C(c1ccccc1Cl)c1ccccc1S2
pIC50: 1.0

Prompt: Recorded pIC50 for O=C(NCc1cccnc1)c1ccc2c(c1)N=C(c1ccc(Cl)c(Cl)c1)c1ccccc1S2 [drawing 687] with CB1 (mutant) (Homo sapiens), please?
Response: 8.2

Prompt: Recorded pIC50 for CON(C)C(=O)c1ccc2c(c1)N=C(c1ccccc1Cl)c1ccccc1S2 with CB1 (mutant) (Homo sapiens), please?
Response: 1.0

Prompt: Recorded pIC50 for CONC(=O)c1ccc2c(c1)N=C(c1ncccc1C)c1ccccc1S2 with CB1 (mutant) (Homo sapiens), please?
Response: 1.0

Prompt: Recorded pIC50 for CCCCN(C)C(=O)c1ccc2c(c1)N=C(c1ncccc1C)c1ccccc1S2 with CB1 (mutant) (Homo sapiens), please?
Response: 1.0

Prompt: Recorded pIC50 for COCCNC(=O)c1ccc2c(c1)N=C(c1ncccc1C)c1ccccc1S2 with CB1 (mutant) (Homo sapiens), please?
Response: 1.0

Prompt: Recorded pIC50 for CONC(=O)c1ccc2c(c1)N=C(c1ccc(C#N)cc1)c1ccccc1S2 with CB1 (mutant) (Homo sapiens), please?
Response: 1.0

---

Each record here notes measured Binding rat Inh %.
EXPERIMENTAL_TARGET: native CB1 receptors (Rattus norvegicus, UniProt P20272)
Sequence (P20272 whole entry): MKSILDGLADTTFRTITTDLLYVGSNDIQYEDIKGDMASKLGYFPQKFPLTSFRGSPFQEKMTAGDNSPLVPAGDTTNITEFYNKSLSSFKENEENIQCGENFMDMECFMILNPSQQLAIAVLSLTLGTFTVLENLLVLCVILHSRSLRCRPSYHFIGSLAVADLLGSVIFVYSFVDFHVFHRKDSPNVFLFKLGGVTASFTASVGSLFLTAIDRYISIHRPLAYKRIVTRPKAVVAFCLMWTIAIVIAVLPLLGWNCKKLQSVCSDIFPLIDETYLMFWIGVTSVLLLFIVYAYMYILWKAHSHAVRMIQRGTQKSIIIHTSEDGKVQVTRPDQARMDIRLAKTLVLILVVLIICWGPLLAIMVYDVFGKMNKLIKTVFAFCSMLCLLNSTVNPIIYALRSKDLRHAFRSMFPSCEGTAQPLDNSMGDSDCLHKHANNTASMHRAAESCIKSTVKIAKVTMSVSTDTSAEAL
ASSAY_NAME: CB1 receptor rat binding assay ([3H]SR141716A, rat brain membranes)
EXPERIMENTAL_PARAMETERS: rat brain membranes, [3H]SR141716A
The answer is to be given in %; state only the numeric part.

Prompt: Looking for the measured Binding rat Inh % of COc1ccc(C2=Nc3cc(C(=O)NNC(=O)c4ccccc4)ccc3Sc3ccccc32)cc1 [drawing 1535] , can you help?
Response: 68

Prompt: Looking for the measured Binding rat Inh % of O=C(NC1CCCCC1)c1ccc2c(c1)N=C(c1ccc(F)cc1)c1ccccc1S2 [drawing 1202] , can you help?
Response: 84

Prompt: Looking for the measured Binding rat Inh % of CC(C)NC(=O)c1ccc2c(c1)N=C(c1cccc(F)c1)c1ccccc1S2 [drawing 1528] , can you help?
Response: 77

Prompt: Looking for the measured Binding rat Inh % of Cc1ccsc1C1=Nc2cc(C(=O)NCc3ccco3)ccc2Sc2ccccc21 [drawing 1277] , can you help?
Response: 85

---

Each record here notes measured % Inhibition.
EXPERIMENTAL_TARGET: CB1 (mutant) (Homo sapiens, UniProt P21554)
Sequence (P21554 1-417, change not shown): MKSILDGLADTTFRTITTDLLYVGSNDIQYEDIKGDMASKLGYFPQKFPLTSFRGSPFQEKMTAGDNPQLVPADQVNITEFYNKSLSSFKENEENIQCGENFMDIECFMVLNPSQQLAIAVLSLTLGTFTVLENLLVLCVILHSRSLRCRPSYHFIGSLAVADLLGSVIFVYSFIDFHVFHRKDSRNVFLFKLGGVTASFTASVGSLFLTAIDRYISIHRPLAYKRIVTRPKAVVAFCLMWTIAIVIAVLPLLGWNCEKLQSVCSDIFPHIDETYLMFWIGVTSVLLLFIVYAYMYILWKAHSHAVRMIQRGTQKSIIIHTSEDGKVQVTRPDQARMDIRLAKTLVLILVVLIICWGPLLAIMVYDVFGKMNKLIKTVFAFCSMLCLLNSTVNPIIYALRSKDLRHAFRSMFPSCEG
ASSAY_NAME: R-SAT functional receptor assay, CB1 (mutant, truncated after amino acid 417)
Type: cell-based
EXPERIMENTAL_PARAMETERS: Appendix A; R-SAT CB1; receptor form not stated; relative to SR141716 (100%)
The answer is to be given in %; state only the numeric part.

Known % Inhibition results, listed for orientation:
MOLECULE: O=C(NN1CCCCC1)c1ccc2c(c1)N=C(c1ccc(Cl)cc1)c1ccccc1S2 [drawing 863]
% Inhibition [%]: 103

MOLECULE: O=C(NN1CCCCCC1)c1ccc2c(c1)N=C(c1cccc(F)c1)c1ccccc1S2 [drawing 883]
% Inhibition [%]: 96

Prompt: Looking for the measured % Inhibition of O=C(NC1CCCCC1)c1ccc2c(c1)N=C(c1ccc(F)cc1)c1ccccc1S2 [drawing 951] , can you help?
Response: 108

Prompt: Looking for the measured % Inhibition of CC(C)CNC(=O)c1ccc2c(c1)N=C(c1cccc(Cl)c1)c1ccccc1S2 [drawing 565] , can you help?
Response: 105

Prompt: Looking for the measured % Inhibition of O=C(NN1CCCCCC1)c1ccc2c(c1)N=C(c1cccc(Cl)c1)c1ccccc1S2 [drawing 721] , can you help?
Response: 105

---

EXPERIMENTAL_TARGET: CB1 (mutant) (Homo sapiens)
ASSAY_NAME: R-SAT functional receptor assay, CB1 (mutant, truncated after amino acid 417)
Assay type: cell-based
EXPERIMENTAL_PARAMETERS: Appendix A; R-SAT CB1; receptor form (mutant or wild-type) not stated; read-out: pIC50 (converted)
Each record here notes measured log10 of IC50.
Form field - Quantity: IC50; Unit: nM; Scale: log10

Known log10 of IC50 results, listed for orientation:
MOLECULE: Cc1cccnc1C1=Nc2cc(C(=O)NCc3cccs3)ccc2Sc2ccccc21
log10 of IC50: 2.00

MOLECULE: O=C(NCc1ccco1)c1ccc2c(c1)N=C(c1ccc(Cl)s1)c1ccccc1S2 [drawing 621]
log10 of IC50: 0.60

Prompt: Recorded log10 of IC50 for CCCCNC(=O)c1ccc2c(c1)N=C(c1cccc(Cl)c1)c1ccccc1S2 [drawing 737] with CB1 (mutant) (Homo sapiens), please?
Response: 0.90

Prompt: Recorded log10 of IC50 for CCOC(=O)c1ccc(C2=Nc3cc(C(=O)NCc4cccnc4)ccc3Sc3ccccc32)cc1 [drawing 850] with CB1 (mutant) (Homo sapiens), please?
Response: 2.20

---

Each record here notes measured Hypothermia 3 mg/kg.
System: NSA mice
ASSAY_NAME: Hypothermia study (block of CP 55,940-induced hypothermia)
Assay type: in vivo
Design: unit not given here
EXPERIMENTAL_PARAMETERS: 3 mg/kg
Form rule: numeric answer, no unit written next to it.

Known Hypothermia 3 mg/kg results, listed for orientation:
MOLECULE: O=C(NCc1cccnc1)c1ccc2c(c1)N=C(c1cccc(Br)c1)c1ccccc1S2 [drawing 1641]
Hypothermia 3 mg/kg: 56
--
MOLECULE: O=C(NCc1ccccc1)c1ccc2c(c1)N=C(c1cccc(Cl)c1)c1ccccc1S2 [drawing 1638]
Hypothermia 3 mg/kg: 27
--
MOLECULE: CCCCNC(=O)c1ccc2c(c1)N=C(c1ccc(Cl)c(F)c1)c1ccccc1S2 [drawing 1626]
Hypothermia 3 mg/kg: 79

Next, consider the following molecule.
Prompt: Looking for the measured Hypothermia 3 mg/kg of O=C(NC1CCCCC1)c1ccc2c(c1)N=C(c1ccc(Cl)cc1)c1ccccc1S2 [drawing 1603] , can you help?
Response: 60

---

Test system: NSA mice
ASSAY_NAME: Hypothermia study (block of CP 55,940-induced hypothermia)
Type: in vivo
Set-up: unit not given here
EXPERIMENTAL_PARAMETERS: 3 mg/kg
Kindly return Met if reported Hypothermia 3 mg/kg is no lower than 30; return Not met if it is lower.

The following compounds have reported results that may help.
COMPOUND: O=C(NN1CCCCCC1)c1ccc2c(c1)N=C(c1ccc(Cl)s1)c1ccccc1S2 [drawing 1584]
QUALITATIVE_LABEL: Met
--
COMPOUND: O=C(NCc1cccc(Cl)c1)c1ccc2c(c1)N=C(c1ccc(Cl)cc1)c1ccccc1S2 [drawing 1614]
QUALITATIVE_LABEL: Not met
--
COMPOUND: O=C(NC1CCCCC1)c1ccc2c(c1)N=C(c1cccc(Cl)c1)c1ccccc1S2 [drawing 1574]
QUALITATIVE_LABEL: Met
--
COMPOUND: Cc1ccsc1C1=Nc2cc(C(=O)NN3CCCCC3)ccc2Sc2ccccc21 [drawing 1615]
QUALITATIVE_LABEL: Met
--
COMPOUND: O=C(NCc1ccc(F)cc1)c1ccc2c(c1)N=C(C1CCCCC1)c1ccccc1S2 [drawing 1640]
QUALITATIVE_LABEL: Met

Prompt: Given the entry O=C(NCc1cccs1)c1ccc2c(c1)N=C(c1ccc(Cl)cc1)c1ccccc1S2 [drawing 1628] , answer whether its Hypothermia 3 mg/kg meets or surpasses 30.
Response: Met

Prompt: Given the entry CCCCNC(=O)c1ccc2c(c1)N=C(c1ccc(Cl)cn1)c1cc(F)ccc1S2 [drawing 1627] , answer whether its Hypothermia 3 mg/kg meets or surpasses 30.
Response: Not met

Prompt: Given the entry CCCCNC(=O)c1cnc2c(n1)N=C(c1ccccc1)c1ccccc1S2 [drawing 1607] , answer whether its Hypothermia 3 mg/kg meets or surpasses 30.
Response: Not met

Prompt: Given the entry O=C(NCc1cccnc1)c1ccc2c(c1)N=C(c1ccc(Cl)cc1)c1ccccc1S2 [drawing 1633] , answer whether its Hypothermia 3 mg/kg meets or surpasses 30.
Response: Not met

Prompt: Given the entry Cc1ccsc1C1=Nc2cc(C(=O)NN3CCCCCC3)ccc2Sc2ccccc21 [drawing 1597] , answer whether its Hypothermia 3 mg/kg meets or surpasses 30.
Response: Not met

Prompt: Given the entry O=C(NCc1cccs1)c1ccc2c(c1)N=C(c1ccc(Cl)s1)c1ccccc1S2 [drawing 1612] , answer whether its Hypothermia 3 mg/kg meets or surpasses 30.
Response: Met

Prompt: Given the entry O=C(NCc1ccccc1)c1ccc2c(c1)N=C(c1ccc(Cl)cc1)c1ccccc1S2 [drawing 1648] , answer whether its Hypothermia 3 mg/kg meets or surpasses 30.
Response: Met

Prompt: Given the entry O=C(NCc1cccs1)c1ccc2c(c1)N=C(c1ccc(F)cc1)c1ccccc1S2 [drawing 1558] , answer whether its Hypothermia 3 mg/kg meets or surpasses 30.
Response: Met

Prompt: Given the entry CC(C)CNC(=O)c1ccc2c(c1)N=C(c1cccc(Cl)c1)c1ccccc1S2 [drawing 1646] , answer whether its Hypothermia 3 mg/kg meets or surpasses 30.
Response: Met

Prompt: Given the entry Cc1csc(CNC(=O)c2ccc3c(c2)N=C(c2sccc2C)c2ccccc2S3)c1 [drawing 1610] , answer whether its Hypothermia 3 mg/kg meets or surpasses 30.
Response: Not met

Prompt: Given the entry O=C(NCc1cccc(Cl)c1)c1ccc2c(c1)N=C(c1ccc(F)cc1)c1ccccc1S2(=O)=O [drawing 1571] , answer whether its Hypothermia 3 mg/kg meets or surpasses 30.
Response: Met

Prompt: Given the entry CCCCNC(=O)c1ccc2c(c1)N=C(c1ccc(F)c(Cl)c1)c1ccccc1S2 , answer whether its Hypothermia 3 mg/kg meets or surpasses 30.
Response: Met
